Biological target: Solute carrier organic anion transporter family member 1A2 (OATP1A2) (Homo sapiens, UniProt P46721)
Sequence (P46721 whole entry): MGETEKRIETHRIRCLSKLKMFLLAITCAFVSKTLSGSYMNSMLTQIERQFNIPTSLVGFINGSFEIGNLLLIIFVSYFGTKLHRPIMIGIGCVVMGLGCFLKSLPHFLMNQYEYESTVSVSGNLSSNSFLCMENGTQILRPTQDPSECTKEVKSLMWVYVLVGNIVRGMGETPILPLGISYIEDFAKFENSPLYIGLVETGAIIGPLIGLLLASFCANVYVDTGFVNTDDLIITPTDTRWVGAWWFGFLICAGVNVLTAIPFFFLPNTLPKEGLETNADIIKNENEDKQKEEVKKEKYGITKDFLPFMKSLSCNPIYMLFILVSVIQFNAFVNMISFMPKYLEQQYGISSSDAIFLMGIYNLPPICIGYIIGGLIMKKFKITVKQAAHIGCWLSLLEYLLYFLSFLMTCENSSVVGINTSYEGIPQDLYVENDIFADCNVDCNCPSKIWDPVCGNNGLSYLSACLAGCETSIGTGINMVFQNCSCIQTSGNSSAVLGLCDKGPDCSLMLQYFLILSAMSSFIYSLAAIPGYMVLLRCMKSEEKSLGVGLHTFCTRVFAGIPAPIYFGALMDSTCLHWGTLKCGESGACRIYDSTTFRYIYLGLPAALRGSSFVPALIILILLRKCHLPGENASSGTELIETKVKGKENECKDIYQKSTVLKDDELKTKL
Assay: TP_TRANSPORTER: uptake in Xenopus laevis oocytes
Type: functional, cell-based, Oocyte
attributeMeasured: Km (µM)
Answers are plain numbers, in µM.

compound	outputUnit	endpointValue
C[C@@H]1O[C@@H](O[C@H]2C[C@@H](O)[C@]3(CO)[C@H]4[C@H](O)C[C@]5(C)[C@@H](C6=CC(=O)OC6)CC[C@]5(O)[C@@H]4CC[C@]3(O)C2)[C@H](O)[C@H](O)[C@H]1O [OUABAIN]	µM	5500

Value lookup for Km; key = C[C@]12CC[C@@H]3c4ccc(OS(=O)(=O)O)cc4CC[C@H]3[C@@H]1CCC2=O [ESTRONE SULFURIC ACID] 59

----------
Biological target: Solute carrier organic anion transporter family member 1A2 (OATP1A2) (Homo sapiens)
Experiment: TP_TRANSPORTER: inhibition of E1S uptake (E1S: 0.2 uM, TCDC: 100 uM) in Xenopus laevis oocytes
Assay type: functional, cell-based, Oocyte
Conditions: probe E1S (estrone sulfate)
attributeMeasured: inhibition at 100 µM (%)
Give bare numbers, in %.

Could you tell me which inhibition at 100 µM is on file for C[C@H](CCC(=O)NCCS(=O)(=O)O)[C@H]1CC[C@H]2[C@@H]3[C@H](O)C[C@@H]4C[C@H](O)CC[C@]4(C)[C@H]3CC[C@]12C [TAUROCHENODEOXYCHOLATE] ? 91

----------
Target: Solute carrier organic anion transporter family member 1A2 (OATP1A2) (Homo sapiens)
Assay: TP_TRANSPORTER: inhibition of Ouabain uptake (Ouabain: 100 uM, TCDC: 100 uM) in Xenopus laevis oocytes
Format: functional, cell-based, Oocyte
Settings: probe Ouabain
attributeMeasured: inhibition at 100 µM (%)
Numbers only, in %.

# inhibition at 100 µM lookup, item C[C@H](CCC(=O)NCCS(=O)(=O)O)[C@H]1CC[C@H]2[C@@H]3[C@H](O)C[C@@H]4C[C@H](O)CC[C@]4(C)[C@H]3CC[C@]12C [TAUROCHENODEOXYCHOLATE] 100
